Hello, the source for this data is PubChem BioAssay (NCI), in case you need it.

# Procedure Text: NCI Yeast Anticancer Drug Screen. Data for the bub3 strain (AID 167)
# Assay Conditions: S. cerevisiae bub3 mutant strain, at 33.0 µM, stronger effect = higher value
Compounds without any hit were thinned out: in the full panel of roughly 79,000, 15% have a hit.
Classification field: true = growth inhibition at or over 50%; false = growth inhibition under 50%.

S=C1NC2(CCCCC2)NC12CCCCC2 : false
CSc1ccccc1[As](C)C : true
CC12CCC(C1)C(C)(C)C2OC(=O)c1ccccc1N (configuration not stated) : false
c1ccc2cc3n[se]nc3cc2c1 : false
C[N+](CCCl)(CCCl)Cc1cccc2cccc([N+](=O)[O-])c12 : false
Oc1ccc2nc3ccccc3nc2c1 : false

State whether the measured growth inhibition reaches 50%, counting equality as reaching it, for `Cn1cnc(N)c1C(=N)[Se]`
true
